# System: rodent lifetime carcinogenesis bioassay, tumor incidence TD50
# method: carcinogenic potency in animals, long-term in vivo studies, CPDB compilation (AID 1745844)
# details: hamster; strain Syrian Golden; females; in drinking water; site: thyroid gland; lesion: several types; types named in the paper; dosed 90 weeks; study length 90 weeks
quantity.kind: TD50

[ask] Respond only with TD50 recorded for CCOC(N)=O
[reply] 538 mg/kg/day

* * *

# Tested on: rodent lifetime carcinogenesis bioassay, tumor incidence TD50
# method: carcinogenic potency in animals, long-term in vivo studies, CPDB compilation (AID 1745844)
# details: mouse; strain B6C3F1; males; in feed; site: any site (literature study); lesion: several types; types named in the paper; dosed 46 weeks; study length 46 weeks
quantity.kind: TD50 (mg/kg/day)
Write the value in mg/kg/day as a bare number.

[ask] Respond only with TD50 recorded for Cc1ccc2c(c1[N+](=O)[O-])C(=O)c1ccccc1C2=O
[reply] 1.02

* * *

# System: rodent lifetime carcinogenesis bioassay, tumor incidence TD50
# method: carcinogenic potency in animals, long-term in vivo studies, CPDB compilation (AID 1745844)
# details: rat; strain MRC-Wistar; females; in drinking water; site: any site (literature study); lesion: several types; types named in the paper; dosed 41 weeks; study length 70 weeks
quantity.kind: TD50
Your answer should be a number followed by the unit of measure.

[ask] Respond only with TD50 recorded for O=NN1CCC(=O)NC1=O
[reply] 0.13 mg/kg/day

* * *

# Test system: rodent lifetime carcinogenesis bioassay, tumor incidence TD50
# method: carcinogenic potency in animals, long-term in vivo studies, CPDB compilation (AID 1745844)
# details: mouse; strain B6C3F1; females; inhaled; site: lung; lesion: alveolar/bronchiolar adenoma + alveolar/bronchiolar carcinoma; dosed 100 weeks; study length 100 weeks
quantity.kind: TD50 (mg/kg/day)
Write the value in mg/kg/day as a bare number.

[ask] Respond only with TD50 recorded for CCCl
[reply] 8640

* * *

# Tested on: rodent lifetime carcinogenesis bioassay, tumor incidence TD50
# method: carcinogenic potency in animals, long-term in vivo studies, CPDB compilation (AID 1745844)
# details: rat; strain Fischer 344; females; in feed; site: thyroid gland; lesion: c-cell carcinoma; dosed 103 weeks; study length 105 weeks
quantity.kind: TD50 (mg/kg/day)
Write the value in mg/kg/day as a bare number.

[ask] Respond only with TD50 recorded for Nc1nc(N)nc(N)n1
[reply] 4160

* * *

# Tested on: rodent lifetime carcinogenesis bioassay, tumor incidence TD50
# method: carcinogenic potency in animals, long-term in vivo studies, CPDB compilation (AID 1745844)
# details: mouse; strain Swiss albino; males; by gavage; site: preputial gland; lesion: squamous-cell carcinoma; dosed 52 weeks; study length 134 weeks
quantity.kind: TD50 (mg/kg/day)
Write the value in mg/kg/day as a bare number.

[ask] Jot down TD50 (rodent lifetime carcinogenesis bioassay, tumor incidence TD50) of CCCC/C=N/N(C)C=O .
[reply] 19.8

* * *

# System: rodent lifetime carcinogenesis bioassay, tumor incidence TD50
# method: carcinogenic potency in animals, long-term in vivo studies, CPDB compilation (AID 1745844)
# details: mouse; strain B6C3F1; females; by gavage; site: liver; lesion: hepatocellular adenoma + hepatoblastoma + hepatocellular carcinoma; dosed 88 weeks; study length 104 weeks
quantity.kind: TD50 (mg/kg/day)
Write the value in mg/kg/day as a bare number.

[ask] Respond only with TD50 recorded for ClCC(Cl)CCl
[reply] 2.93
